Origin of values: the supplement of paper PMC5998384

- Test system: HeLa Kyoto;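 also: synchronized HeLa Kyoto cells, proteins quantified by TMT10plex mass spectrometry, three biological replicates, mitosis taken 0.5 h after nocodazole release, G1/S directly after double thymidine block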
- assay remarks: thermal stability score vs G1/S (z-score of summed log2 fold changes over temperatures); higher = more thermally stable than in G1/S
- assay conditions: cell cycle stage: mitosis
quantity measured: thermal stability score
No unit in the answer, only the number.

Noted for MTLQWAAVATFLYAEIGLILIFCLPFIPPQRWQKIFSFNVWGKIATFWNKAFLTIIILLIVLFLDAVREVRKYSSVHTIEKSSTSRPDAYEHTQMKLFRSQRNLYISGFSLFFWLVLRRLVTLITQLAKELSNKGVLKTQAENTNKAAKKFMEENEKLKRILKSHGKDEECVLEAENKKLVEDQEKLKTELRKTSDALSKAQNDVMEMKMQSERLSKEYDQLLKEHSELQDRLERGNKKRL [BCAP29] : its thermal stability score reads -5.19

Noted for MLGLLVALLALGLAVFALLDVWYLVRLPCAVLRARLLQPRVRDLLAEQRFPGRVLPSDLDLLLHMNNARYLREADFARVAHLTRCGVLGALRELRAHTVLAASCARHRRSLRLLEPFEVRTRLLGWDDRAFYLEARFVSLRDGFVCALLRFRQHLLGTSPERVVQHLCQRRVEPPELPADLQHWISYNEASSQLLRMESGLSDVTKDQ [THEM6] : its thermal stability score reads -2.82

Noted for MEGNRDEAEKCVEIAREALNAGNREKAQRFLQKAEKLYPLPSARALLEIIMKNGSTAGNSPHCRKPSGSGDQSKPNCTKDSTSGSGEGGKGYTKDQVDGVLSINKCKNYYEVLGVTKDAGDEDLKKAYRKLALKFHPDKNHAPGATDAFKKIGNAYAVLSNPEKRKQYDLTGNEEQACNHQNNGRFNFHRGCEADITPEDLFNIFFGGGFPSGSVHSFSNGRAGYSQQHQHRHSGHEREEERGDGGFSVFIQLMPIIVLILVSLLSQLMVSNPPYSLYPRSGTGQTIKMQTENLGVVYYVNKDFKNEYKGMLLQKVEKSVEEDYVTNIRNNCWKERQQKTDMQYAAKVYRDDRLRRKADALSMDNCKELERLTSLYKGG [DNAJB14] : its thermal stability score reads 0.131

Noted for MADKQISLPAKLINGGIAGLIGVTCVFPIDLAKTRLQNQQNGQRVYTSMSDCLIKTVRSEGYFGMYRGAAVNLTLVTPEKAIKLAANDFFRHQLSKDGQKLTLLKEMLAGCGAGTCQVIVTTPMEMLKIQLQDAGRIAAQRKILAAQGQLSAQGGAQPSVEAPAAPRPTATQLTRDLLRSRGIAGLYKGLGATLLRDVPFSVVYFPLFANLNQLGRPASEEKSPFYVSFLAGCVAGSAAAVAVNPCDVVKTRLQSLQRGVNEDTYSGILDCARKILRHEGPSAFLKGAYCRALVIAPLFGIAQVVYFLGIAESLLGLLQDPQA [SLC25A22] : its thermal stability score reads -1.95

Noted for MASILRSPQALQLTLALIKPDAVAHPLILEAVHQQILSNKFLIVRMRELLWRKEDCQRFYREHEGRFFYQRLVEFMASGPIRAYILAHKDAIQLWRTLMGPTRVFRARHVAPDSIRGSFGLTDTRNTTHGSDSVVSASREIAAFFPDFSEQRWYEEEEPQLRCGPVCYSPEGGVHYVAGTGGLGPA [NME6] : its thermal stability score reads -1.08

Noted for MSDEREVAEAATGEDASSPPPKTEAASDPQHPAASEGAAAAAASPPLLRCLVLTGFGGYDKVKLQSRPAAPPAPGPGQLTLRLRACGLNFADLMARQGLYDRLPPLPVTPGMEGAGVVIAVGEGVSDRKAGDRVMVLNRSGMWQEEVTVPSVQTFLIPEAMTFEEAAALLVNYITAYMVLFDFGNLQPGHSVLVHMAAGGVGMAAVQLCRTVENVTVFGTASASKHEALKENGVTHPIDYHTTDYVDEIKKISPKGVDIVMDPLGGSDTAKGYNLLKPMGKVVTYGMANLLTGPKRNLMALARTWWNQFSVTALQLLQANRAVCGFHLGYLDGEVELVSGVVARLLALYNQGHIKPHIDSVWPFEKVADAMKQMQEKKNVGKVLLVPGPEKEN [VAT1] : its thermal stability score reads -3.49

Noted for MAAGIVASRRLRDLLTRRLTGSNYPGLSISLRLTGSSAQEEASGVALGEAPDHSYESLRVTSAQKHVLHVQLNRPNKRNAMNKVFWREMVECFNKISRDADCRAVVISGAGKMFTAGIDLMDMASDILQPKGDDVARISWYLRDIITRYQETFNVIERCPKPVIAAVHGGCIGGGVDLVTACDIRYCAQDAFFQVKEVDVGLAADVGTLQRLPKVIGNQSLVNELAFTARKMMADEALGSGLVSRVFPDKEVMLDAALALAAEISSKSPVAVQSTKVNLLYSRDHSVAESLNYVASWNMSMLQTQDLVKSVQATTENKELKTVTFSKL [ECH1] : its thermal stability score reads -2.22

Noted for MAAIPPDSWQPPNVYLETSMGIIVLELYWKHAPKTCKNFAELARRGYYNGTKFHRIIKDFMIQGGDPTGTGRGGASIYGKQFEDELHPDLKFTGAGILAMANAGPDTNGSQFFVTLAPTQWLDGKHTIFGRVCQGIGMVNRVGMVETNSQDRPVDDVKIIKAYPSG [PPIL1] : its thermal stability score reads -0.941

Noted for MSKGTSSDTSLGRVSRAAFPSPTAAEMAEISRIQYEMEYTEGISQRMRVPEKLKVAPPNADLEQGFQEGVPNASVIMQVPERIVVAGNNEDVSFSRPADLDLIQSTPFKPLALKTPPRVLTLSERPLDFLDLERPPTTPQNEEIRAVGRLKRERSMSENAVRQNGQLVRNDSLWHRSDSAPRNKISRFQAPISAPEYTVTPSPQQARVCPPHMLPEDGANLSSARGILSLIQSSTRRAYQQILDVLDENRRPVLRGGSAAATSNPHHDNVRYGISNIDTTIEGTSDDLTVVDAASLRRQIIKLNRRLQLLEEENKERAKREMVMYSITVAFWLLNSWLWFRR [MFF] : its thermal stability score reads 1.39

Noted for METRYNLKSPAVKRLMKEAAELKDPTDHYHAQPLEDNLFEWHFTVRGPPDSDFDGGVYHGRIVLPPEYPMKPPSIILLTANGRFEVGKKICLSISGHHPETWQPSWSIRTALLAIIGFMPTKGEGAIGSLDYTPEERRALAKKSQDFCCEGCGSAMKDVLLPLKSGSDSSQADQEAKELARQISFKAEVNSSGKTISESDLNHSFSLTDLQDDIPTTFQGATASTSYGLQNSSAASFHQPTQPVAKNTSMSPRQRRAQQQSQRRLSTSPDVIQGHQPRDNHTDHGGSAVLIVILTLALAALIFRRIYLANEYIFDFEL [UBE2J1] : its thermal stability score reads 1.77
